- experimental target: T1, GFP-9S library array, motif 4 ND N98F;D124K (synthetic construct, N98F;D124K)
- T1 chain: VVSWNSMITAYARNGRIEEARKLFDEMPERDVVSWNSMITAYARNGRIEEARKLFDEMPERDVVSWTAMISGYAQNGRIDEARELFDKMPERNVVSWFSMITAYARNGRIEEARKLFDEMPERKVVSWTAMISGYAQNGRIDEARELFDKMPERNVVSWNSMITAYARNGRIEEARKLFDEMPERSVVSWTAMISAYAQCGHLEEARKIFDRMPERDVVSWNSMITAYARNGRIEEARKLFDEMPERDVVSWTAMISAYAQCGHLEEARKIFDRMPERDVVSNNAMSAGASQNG
- test protocol: high-throughput RNA pulldown from lysate on Ni-NTA beads; HRP: 50 mM Tris pH 8, 150 mM NaCl, 1 mM beta-mercaptoethanol, 50 ug/ml BSA, 3 ug/ml yeast RNA, 0.5% heparin; ITC and FP: Tris pH 8, 200 mM KCl, 5% glycerol; MST: 50 mM Tris pH 8, 200 mM NaCl, 1 mM DTT, BSA, heparin, 0.05% Tween 20
- run conditions: tags: N-terminal His-eGFP; label: 5' IRDye 800CW
measured attribute: Kd
Note: a bare number is incomplete; add the unit.

binder: AUUAUACGUGA (ssRNA) [IR-rpoA-U]
Kd: 667 nM

Turning to the following binder.
Short answer for AUUAAACGUGA (ssRNA) [IR-rpoA-A] : Kd was 121 nM

Sourced from paper PMC8809517
